Give measured MIC50 for each item. Keep answers brief.
System: Prevotella buccae-oris group
Test: Agar dilution MIC
Assay type: cell-based
Settings: Prevotella, read-out: Minimal Inhibitory Concentration 50% (MIC50); 22 isolates

# input What does the record list as MIC50 for CC[C@H]1OC(=O)[C@H](C)[C@@H](O[C@H]2C[C@@](C)(OC)[C@@H](O)[C@H](C)O2)[C@H](C)[C@@H](O[C@@H]2O[C@H](C)C[C@H](N(C)C)[C@H]2O)[C@](C)(O)C[C@@H](C)CN(C)[C@H](C)[C@@H](O)[C@]1(C)O [Azithromycin] ?
# output 0.5 µg/mL

# input Could you share which MIC50 value was measured for CC[C@H]1OC(=O)[C@H](C)[C@@H](O[C@H]2C[C@@](C)(OC)[C@@H](O)[C@H](C)O2)[C@H](C)[C@@H](O[C@@H]2O[C@H](C)C[C@H](N(C)C)[C@H]2O)[C@](C)(O)C[C@@H](C)C(=O)[C@H](C)[C@@H](O)[C@]1(C)O [Erythromycin] ?
# output 1 µg/mL

# input // returns reported MIC50 for input CCC[C@@H]1C[C@@H](C(=O)N[C@@H]([C@H]2O[C@H](SC)[C@H](O)[C@@H](O)[C@H]2O)[C@H](C)Cl)N(C)C1 [Clindamycin]
# output ≤ 0.015 µg/mL

# input Data request, read-out MIC50, for CC[C@H]1OC(=O)[C@H](C)[C@@H](O[C@H]2C[C@@](C)(OC)[C@@H](O)[C@H](C)O2)[C@H](C)[C@@H](O[C@@H]2O[C@H](C)C[C@H](N(C)C)[C@H]2O)[C@](C)(OC)C[C@@H](C)C(=O)[C@H](C)[C@@H](O)[C@]1(C)O [Clarithromycin]
# output 0.125 µg/mL

# input Which MIC50 is reported for this compound? Cc1ncc([N+](=O)[O-])n1CCO [Metronidazole]
# output 1 µg/mL

# input Request the reported MIC50 associated with N[C@@H]1[C@H]2CN(c3nc4c(cc3F)c(=O)c(C(=O)O)cn4-c3ccc(F)cc3F)C[C@@H]12 [Trovafloxacin]
# output 1 µg/mL

###

Provide the reported Minimal Inhibitory Concentration Range of each item.
Tested on: Bilophila wadsworthia
Test: Agar dilution MIC
Assay type: cell-based
Details: 16 isolates; agar supplemented with pyruvate

# input Any idea what Minimal Inhibitory Concentration Range was measured for CCC[C@@H]1C[C@@H](C(=O)N[C@@H]([C@H]2O[C@H](SC)[C@H](O)[C@@H](O)[C@H]2O)[C@H](C)Cl)N(C)C1 [Clindamycin] ?
# output 0.25 to 2 µg/mL

# input Query (compound): CC1(C)S[C@@H]2[C@H](NC(=O)Cc3ccccc3)C(=O)N2[C@H]1C(=O)O [Penicillin G] ; field requested: Minimal Inhibitory Concentration Range
# output 2 to 16 µg/mL

# input Value lookup for Minimal Inhibitory Concentration Range; key = CC[C@H]1OC(=O)[C@H](C)[C@@H](O[C@H]2C[C@@](C)(OC)[C@@H](O)[C@H](C)O2)[C@H](C)[C@@H](O[C@@H]2O[C@H](C)C[C@H](N(C)C)[C@H]2O)[C@](C)(O)C[C@@H](C)C(=O)[C@H](C)[C@@H](O)[C@]1(C)O [Erythromycin]
# output 4 to 32 µg/mL

# input Report Minimal Inhibitory Concentration Range for CC[C@H]1OC(=O)[C@H](C)[C@@H](O[C@H]2C[C@@](C)(OC)[C@@H](O)[C@H](C)O2)[C@H](C)[C@@H](O[C@@H]2O[C@H](C)C[C@H](N(C)C)[C@H]2O)[C@](C)(OC)C[C@@H](C)C(=O)[C@H](C)[C@@H](O)[C@]1(C)O [Clarithromycin] please.
# output 4 to 32 µg/mL

# input Which Minimal Inhibitory Concentration Range value belongs to CC[C@H]1OC(=O)[C@H](C)[C@@H](O[C@H]2C[C@@](C)(OC)[C@@H](O)[C@H](C)O2)[C@H](C)[C@@H](O[C@@H]2O[C@H](C)C[C@H](N(C)C)[C@H]2O)[C@](C)(O)C[C@@H](C)CN(C)[C@H](C)[C@@H](O)[C@]1(C)O [Azithromycin] ?
# output 1 to 16 µg/mL

###

Tested on: Porphyromonas gingivalis
Test: Agar dilution MIC
Format: cell-based
Conditions: Porphyromonas gingivalis; 13 isolates; read-out: Minimal Inhibitory Concentration 90% (MIC90)
Quantity Measured: MIC90 (µg/mL)
Report the value in µg/mL with no unit label.

# input Missing value: MIC90, Porphyromonas gingivalis, entry CC[C@H]1OC(=O)[C@H](C)[C@@H](O[C@H]2C[C@@](C)(OC)[C@@H](O)[C@H](C)O2)[C@H](C)[C@@H](O[C@@H]2O[C@H](C)C[C@H](N(C)C)[C@H]2O)[C@](C)(OC)C[C@@H](C)C(=O)[C@H](C)[C@@H](O)[C@]1(C)O . Fill in?
# output 0.125

# input Please state recorded MIC90 (tested on Porphyromonas gingivalis) of CC[C@H]1OC(=O)[C@H](C)[C@@H](O[C@H]2C[C@@](C)(OC)[C@@H](O)[C@H](C)O2)[C@H](C)[C@@H](O[C@@H]2O[C@H](C)C[C@H](N(C)C)[C@H]2O)[C@](C)(O)C[C@@H](C)CN(C)[C@H](C)[C@@H](O)[C@]1(C)O
# output 0.5

# input Write down the reported MIC90 of N[C@@H]1[C@H]2CN(c3nc4c(cc3F)c(=O)c(C(=O)O)cn4-c3ccc(F)cc3F)C[C@@H]12 , test system: Porphyromonas gingivalis.
# output 0.06

# input Quick check: MIC90 on Porphyromonas gingivalis, item CO/N=C1\CN(c2nc3c(cc2F)c(=O)c(C(=O)O)cn3C2CC2)CC1CN (racemic) ?
# output 0.125

# input // map CC[C@H]1OC(=O)[C@H](C)[C@@H](O[C@H]2C[C@@](C)(OC)[C@@H](O)[C@H](C)O2)[C@H](C)[C@@H](O[C@@H]2O[C@H](C)C[C@H](N(C)C)[C@H]2O)[C@](C)(O)C[C@@H](C)C(=O)[C@H](C)[C@@H](O)[C@]1(C)O to recorded MIC90 (system: Porphyromonas gingivalis)
# output 0.5

# input Form field - read-out: MIC90; system: Porphyromonas gingivalis; submitted item: Cc1ncc([N+](=O)[O-])n1CCO
# output 0.03

###

Tested on: Clostridium clostridioforme
Experiment: Agar dilution MIC
Assay type: cell-based
Conditions: Clostridium, read-out: Minimal Inhibitory Concentration 50% (MIC50); 11 isolates
Quantity Measured: MIC50 (µg/mL)
Quick note: give the figure in µg/mL, leave out the unit.

# input Which MIC50 reading was recorded for the compound CC[C@H]1OC(=O)[C@H](C)[C@@H](O[C@H]2C[C@@](C)(OC)[C@@H](O)[C@H](C)O2)[C@H](C)[C@@H](O[C@@H]2O[C@H](C)C[C@H](N(C)C)[C@H]2O)[C@](C)(O)C[C@@H](C)CN(C)[C@H](C)[C@@H](O)[C@]1(C)O ?
# output 16

# input Recorded MIC50 of N[C@@H]1[C@H]2CN(c3nc4c(cc3F)c(=O)c(C(=O)O)cn4-c3ccc(F)cc3F)C[C@@H]12 , please.
# output 4

# input // lookup MIC50 for CC[C@H]1OC(=O)[C@H](C)[C@@H](O[C@H]2C[C@@](C)(OC)[C@@H](O)[C@H](C)O2)[C@H](C)[C@@H](O[C@@H]2O[C@H](C)C[C@H](N(C)C)[C@H]2O)[C@](C)(O)C[C@@H](C)C(=O)[C@H](C)[C@@H](O)[C@]1(C)O
# output 16

# input Reported MIC50 for CC[C@H]1OC(=O)[C@H](C)[C@@H](O[C@H]2C[C@@](C)(OC)[C@@H](O)[C@H](C)O2)[C@H](C)[C@@H](O[C@@H]2O[C@H](C)C[C@H](N(C)C)[C@H]2O)[C@](C)(OC)C[C@@H](C)C(=O)[C@H](C)[C@@H](O)[C@]1(C)O : what is it?
# output 4

# input # query: MIC50 of entry CCC[C@@H]1C[C@@H](C(=O)N[C@@H]([C@H]2O[C@H](SC)[C@H](O)[C@@H](O)[C@H]2O)[C@H](C)Cl)N(C)C1
# output 0.06

###

Tested on: Actinomyces israelii
Assay: Agar dilution MIC
Format: cell-based
Settings: Actinomyces israelii, read-out: Minimal Inhibitory Concentration 50% (MIC50); 6 isolates
Quantity Measured: MIC50 (µg/mL)
Give the quantity in µg/mL, number only.

# input Lab note: need MIC50 for CC[C@H]1OC(=O)[C@H](C)[C@@H](O[C@H]2C[C@@](C)(OC)[C@@H](O)[C@H](C)O2)[C@H](C)[C@@H](O[C@@H]2O[C@H](C)C[C@H](N(C)C)[C@H]2O)[C@](C)(O)C[C@@H](C)CN(C)[C@H](C)[C@@H](O)[C@]1(C)O on Actinomyces israelii, anyone have it?
# output 0.06

# input Fill in the recorded MIC50 for this molecule, with Actinomyces israelii as test system: N[C@@H]1[C@H]2CN(c3nc4c(cc3F)c(=O)c(C(=O)O)cn4-c3ccc(F)cc3F)C[C@@H]12
# output 1

# input // lookup MIC50 | system=Actinomyces israelii | key= CC[C@H]1OC(=O)[C@H](C)[C@@H](O[C@H]2C[C@@](C)(OC)[C@@H](O)[C@H](C)O2)[C@H](C)[C@@H](O[C@@H]2O[C@H](C)C[C@H](N(C)C)[C@H]2O)[C@](C)(O)C[C@@H](C)C(=O)[C@H](C)[C@@H](O)[C@]1(C)O
# output 0.03

# input API: value(readout= MIC50, system= Actinomyces israelii, query= CCC[C@@H]1C[C@@H](C(=O)N[C@@H]([C@H]2O[C@H](SC)[C@H](O)[C@@H](O)[C@H]2O)[C@H](C)Cl)N(C)C1 )
# output 0.06

# input Find the measured MIC50: item Cc1ncc([N+](=O)[O-])n1CCO , target or system Actinomyces israelii.
# output 4

Value source: patent US6455540B1
